These measurements were taken from the RNAGym collection of RNA variant scans (doi:10.7554/elife.80360).

B1: HDV Ribozyme (parent)
chain: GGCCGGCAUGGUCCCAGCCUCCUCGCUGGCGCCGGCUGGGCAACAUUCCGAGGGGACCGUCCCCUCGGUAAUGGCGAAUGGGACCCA

# Variants of: B1
# ASSAY: self-cleavage, relative activity (ratio to wild type); higher = more cleavage; co-transcriptional
Would you kindly list self-cleavage for each of these variants?

{"SEQUENCE": "GGCCGGCAUGGUCCCAGCCUCCUCGCUGGCGCCGGCGGGGCAACAUUCCGAGGGGACCGUCACCUCGGUAAUGGCGAAUGGGACCCA", "self-cleavage": 0.0594}
{"SEQUENCE": "GGCCGGCAUGGUCCCAGCCUCGUCGCUGGCGCUGGCUGGGCAACAUUCCGAGGGGACCGUCCCCUCGGUAAUGGCGAAUGGGACCCA", "self-cleavage": 0.0268}
{"SEQUENCE": "GGCCGGCAUGGUCCCAGCCUCCUCGCUGGCGCCGGCUGGGCAACAUUCCGAGUGGGCCGUCCCCUCGGUAAUGGCGAAUGGGACCCA", "self-cleavage": 1.03}
{"SEQUENCE": "GGCCGGCAUGGUCCCAGCCUACUCGCUGGCGCCGGCUGGGCAACAUUCCGAGGGGACCGUCCCCUCGGUAAUGUCGAAUGGGACCCA", "self-cleavage": 0.0712}

Hi team, please reply with self-cleavage for each item in this list.
1. GGCCGGCAUGGUCCCAGCCUCCUCGCUCGCGCCGGUUGGGCAACAUUCCGAGGGGACCGUCCCCUCGGUAAUGGCGAAUGGGACCCA
2. GGCCGGCAUGGUCCCAGCCUCCUCGCUGGCGCCGGCUGAGCAACAUUCCGAGGGGACCGUCCCCUCGUUAAUGGCGAAUGGGACCCA
3. GGCCGGCAUGGUCCCAGCCUCCUCGCUGGCGCCGGCUAGGCAACAUUCCGAGGGGACCCUCCCCUCGGUAAUGGCGAAUGGGACCCA
4. GGCCGGCAUGGUCCCAGCCUCCUCGCUGGCGCAGGCUGGGCAACAUUCCGAGGGGACCGUCCCCUCUGUAAUGGCGAAUGGGACCCA

[reply]
0.145
0.554
0.0256
0.253
